Molecular target: Tremfya Fab with a lambda light chain and binding specificity for IL23 (from the monoclonal antibody guselkumab)
Assay: BLI (ForteBio), biotinylated ligand on sensor, 1:1 fit
Listed binders paired with reported pKd
Here pKd is given on a logarithmic scale as minus log10 of the concentration in mol/L.

{"Binder": "affinity ligand SEQ ID NO: 81 (designed binder, biotinylated (AviTag system)) MGGGGSAAAGDEAERWYDLGAAYAARGDYDRAIEYYQRALELDPNNAWAWWELGVAYAARGDYDRAIEYYQRALELDPNNAVAWRRLGIAYAARGDYDRAIEYYQRALELDPNNEVARDALEYARRARRGQAGQGGGSGLNDIFEAQKIEWHECHHHHHH", "pKd": 8.10}
{"Binder": "affinity ligand SEQ ID NO: 92 (designed binder, biotinylated (AviTag system)) MGGGGSAAAGDEAQRWENQGAAYAARGDYDRAIEYYERALELEPNNAWAWWELGVAYAARGDYDRAIEYYERALELDPDDATAWSRLGHAYAARGDYDRAIGYYERALELDPENETARYLLEHARRARQGQAGQGGGSGLNDIFEAQKIEWHECHHHHHH", "pKd": 8.10}
{"Binder": "affinity ligand SEQ ID NO: 86 (designed binder, biotinylated (AviTag system)) MGGGGSAAAGDEAQRWENQGAAYAARGDYDRAIECYESALELDPNNAWAWWELGVAYAARGDYDRAIEYYERALELDPDDAIAWSRLGHAYAARGDYDRAIEYYERALELDPEDETARYLLEHARRARQGQAGQGGGSGLNDIFEAQKIEWHECHHHHHH", "pKd": 8.10}

Consider now this further binder.
// pKd lookup, binder = affinity ligand SEQ ID NO: 93 (designed binder, biotinylated (AviTag system)) MGGGGSAAAGDEAQRWENQGAAYAARGDYDRAIEYYERALELDPNNAWAWWELGVAYAARGDFDRAIEYYERALELDPDDATVWSRLGHAYAARGDYDRAIEYYERALELDPVDETARYLLEHARRARQGQAGQGGGSGLNDIFEAQKIEWHECHHHHHH , result: 8.40
